- experimental-system: cDNA expressed human cytochrome P450 2E1 (CYP2E1) (Homo sapiens, UniProt P05181)
- Sequence (P05181 whole entry): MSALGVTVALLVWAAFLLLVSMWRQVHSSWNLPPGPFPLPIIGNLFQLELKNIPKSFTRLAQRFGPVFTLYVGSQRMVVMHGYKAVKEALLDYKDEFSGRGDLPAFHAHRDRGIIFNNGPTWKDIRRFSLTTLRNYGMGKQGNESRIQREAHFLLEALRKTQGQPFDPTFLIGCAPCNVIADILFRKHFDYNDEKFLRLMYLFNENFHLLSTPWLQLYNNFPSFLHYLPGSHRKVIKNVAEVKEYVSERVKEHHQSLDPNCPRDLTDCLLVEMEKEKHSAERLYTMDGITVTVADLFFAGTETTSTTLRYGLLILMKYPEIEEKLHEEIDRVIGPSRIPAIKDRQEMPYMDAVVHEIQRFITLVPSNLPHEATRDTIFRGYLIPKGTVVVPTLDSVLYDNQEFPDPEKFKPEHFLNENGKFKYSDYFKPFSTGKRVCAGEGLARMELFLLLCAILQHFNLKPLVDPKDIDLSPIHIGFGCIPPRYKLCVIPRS
- assay-context: tested concentration 16.5 μM
Recorded Inhibition of CYP 2E1 (%) values for a group of molecules are listed next.
# number only, unit % dropped from output

Solved entries:
{"columns": ["molecule", "unit-of-measure", "Inhibition of CYP 2E1 (%)"],
 "data": [
  ["Oc1cc(O)c2c(c1)O[C@H](c1ccc(O)c(O)c1)[C@@H](O)C2 [(+)-Catechin]", "%", 41.53],
  ["Oc1cc(O)c2c(c1)O[C@H](c1ccc(O)c(O)c1)[C@H](O)C2 [(−)-Epicatechin]", "%", 18.27],
  ["COc1c(O)cc2oc(Oc3ccc(O)cc3)cc(=O)c2c1O", "%", 49.05]
]}

Now look at this one.
For the molecule O=c1cc(-c2ccccc2)oc2ccc3ccccc3c12 , what Inhibition of CYP 2E1 (%) is on record? 6.52
